Values were extracted from PubChem BioAssay AID2060889.

# System: LG0567-F671-PDC complex spheroids viability
# testSummary: Anticancer human tumor LG0567-F671-PDC patient-derived lung adenocarcinoma cell line growth inhibition [RAS]; active = viability on the fitted dose curve at most 10% of control; inactive = the rest
# conditionDetails: second compound 3.16 µM; first compound 0.0316 µM
Bench note: report the call from YES = active, NO = inactive

Examples with answers:
[
  {
    "compound": "NC1c2ccccc2OC12CCN(c1cnc3c(N4CCCc5ncccc54)n[nH]c3n1)CC2 (centres undefined) + C#Cc1c(F)ccc2cc(O)cc(-c3ncc4c(N5CC6CCC(C5)N6)nc(OCC56CCCN5CC(F)C6)nc4c3F)c12",
    "targetUnderTest": "LG0567-F671-PDC complex spheroids viability",
    "category": "YES"
  },
  {
    "compound": "CC(C)NCC(C(=O)N1CCN(c2ncnc3c2C(C)CC3O)CC1)c1ccc(Cl)cc1 (centres undefined) + C#Cc1c(F)ccc2cc(O)cc(-c3ncc4c(N5CC6CCC(C5)N6)nc(OCC56CCCN5CC(F)C6)nc4c3F)c12",
    "targetUnderTest": "LG0567-F671-PDC complex spheroids viability",
    "category": "NO"
  },
  {
    "compound": "C=CC(=O)Nc1cc(Nc2nccc(-c3cn(C)c4ccccc34)n2)c(OC)cc1N(C)CCN(C)C + C#Cc1c(F)ccc2cc(O)cc(-c3ncc4c(N5CC6CCC(C5)N6)nc(OCC56CCCN5CC(F)C6)nc4c3F)c12",
    "targetUnderTest": "LG0567-F671-PDC complex spheroids viability",
    "category": "NO"
  },
  {
    "compound": "CCC(CC)c1cc(NC2CCC(N)C2)n2nccc2n1 (centres undefined) + C#Cc1c(F)ccc2cc(O)cc(-c3ncc4c(N5CC6CCC(C5)N6)nc(OCC56CCCN5CC(F)C6)nc4c3F)c12",
    "targetUnderTest": "LG0567-F671-PDC complex spheroids viability",
    "category": "NO"
  },
  {
    "compound": "CC1(O)CCCC1n1c(=O)c(C(F)F)cc2cnc(NC3CCN(S(C)(=O)=O)CC3)nc21 (centres undefined) + C#Cc1c(F)ccc2cc(O)cc(-c3ncc4c(N5CC6CCC(C5)N6)nc(OCC56CCCN5CC(F)C6)nc4c3F)c12",
    "targetUnderTest": "LG0567-F671-PDC complex spheroids viability",
    "category": "NO"
  }
]

Write down the call the test reported for this compound. Item: Nc1ccn(C2OC(CO)C(O)C2(F)F)c(=O)n1 (centres undefined) + C#Cc1c(F)ccc2cc(O)cc(-c3ncc4c(N5CC6CCC(C5)N6)nc(OCC56CCCN5CC(F)C6)nc4c3F)c12 NO

Write down the call the test reported for this compound. Item: CC(=O)OC12COC1CC(O)C1(C)C(=O)C(O)C3=C(C)C(OC(=O)C(O)C(NC(=O)OC(C)(C)C)c4ccccc4)CC(O)(C(OC(=O)c4ccccc4)C21)C3(C)C (centres undefined) + C#Cc1c(F)ccc2cc(O)cc(-c3ncc4c(N5CC6CCC(C5)N6)nc(OCC56CCCN5CC(F)C6)nc4c3F)c12 NO

###

# System: LG0567-F671-PDC complex spheroids viability
# testSummary: Anticancer human tumor LG0567-F671-PDC cell line growth inhibition [RAS]; active = viability on the fitted dose curve at most 10% of control; inactive = the rest;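 also: spheroids exposed to compound for seven days before readout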
# conditionDetails: second compound 0.0949 µM; first compound 0.00316 µM
Bench note: report the call from true = active, false = inactive

[
  {
    "compound": "Nc1ccn(C2OC(CO)C(O)C2(F)F)c(=O)n1 (centres undefined) + CCn1c(-c2cccnc2C(C)OC)c2c3cc(ccc31)N1CCOC(CC(NC(=O)C(C(C)C)N(C)C(=O)C3(F)CCN(C(=O)C#CC(C)(C)N(C)C)CC3)C(=O)N3CCCC(N3)C(=O)OCC(C)(C)C2)C1",
    "category": "false"
  }
]

Write down the call the test reported for this compound. Item: O=C(c1ccc(F)c(F)c1Nc1ccc(I)cc1F)N1CC(O)([C@@H]2CCCCN2)C1 + CCn1c(-c2cccnc2C(C)OC)c2c3cc(ccc31)N1CCOC(CC(NC(=O)C(C(C)C)N(C)C(=O)C3(F)CCN(C(=O)C#CC(C)(C)N(C)C)CC3)C(=O)N3CCCC(N3)C(=O)OCC(C)(C)C2)C1 true

Write down the call the test reported for this compound. Item: C=CC(=O)Nc1cc(Nc2nccc(-c3cn(C)c4ccccc34)n2)c(OC)cc1N(C)CCN(C)C + CCn1c(-c2cc(N3CCN(C)CC3)cnc2C(C)OC)c2c3cc(ccc31)-c1csc(n1)CC(NC(=O)C1CC1C)C(=O)N1CCCC(N1)C(=O)OCC(C)(C)C2 true

Write down the call the test reported for this compound. Item: C=CC(=O)N1CCN(c2nc(OCC3CCCN3C)nc3c(F)c(-c4nc(N)cc(C)c4C(F)(F)F)c(Cl)cc23)C(C)C1 (centres undefined) + CCn1c(-c2cccnc2C(C)OC)c2c3cc(ccc31)N1CCOC(CC(NC(=O)C(C(C)C)N(C)C(=O)C3(F)CCN(C(=O)C#CC(C)(C)N(C)C)CC3)C(=O)N3CCCC(N3)C(=O)OCC(C)(C)C2)C1 false

###

# Test system: LG0567-F671-PDC complex spheroids viability
# testSummary: Anticancer human tumor LG0567-F671-PDC cell line growth inhibition [RAS];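 also: spheroids exposed to compound for seven days before readout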
# conditionDetails: second compound 0.3 µM; first compound 0.3 µM; hits give low values
readoutLabel: viability, T/C

Example results:
[
  {
    "compound": "CCc1c2c(nc3ccc(O)cc13)-c1cc3c(c(=O)n1C2)COC(=O)[C@]3(O)CC + CCn1c(-c2cc(N3CCN(C)CC3)cnc2C(C)OC)c2c3cc(ccc31)-c1csc(n1)CC(NC(=O)C1CC1C)C(=O)N1CCCC(N1)C(=O)OCC(C)(C)C2",
    "readoutLabel": "viability, T/C",
    "measuredResult": "0.31%"
  },
  {
    "compound": "CCc1c2c(nc3ccc(O)cc13)-c1cc3c(c(=O)n1C2)COC(=O)[C@]3(O)CC + CCn1c(-c2cccnc2C(C)OC)c2c3cc(ccc31)N1CCOC(CC(NC(=O)C(C(C)C)N(C)C(=O)C3(F)CCN(C(=O)C#CC(C)(C)N(C)C)CC3)C(=O)N3CCCC(N3)C(=O)OCC(C)(C)C2)C1",
    "readoutLabel": "viability, T/C",
    "measuredResult": "2.05%"
  },
  {
    "compound": "CC1(C)CCC(Nc2ncc(C(F)(F)F)c(-c3c[nH]c4c(P(C)(C)=O)c(C#N)ccc34)n2)CN1 (centres undefined) + CCn1c(-c2cccnc2C(C)OC)c2c3cc(ccc31)N1CCOC(CC(NC(=O)C(C(C)C)N(C)C(=O)C3(F)CCN(C(=O)C#CC(C)(C)N(C)C)CC3)C(=O)N3CCCC(N3)C(=O)OCC(C)(C)C2)C1",
    "readoutLabel": "viability, T/C",
    "measuredResult": "10.7%"
  }
]

Let us examine a further case.
// returns reported viability, T/C for input CC1(C)CCC(Nc2ncc(C(F)(F)F)c(-c3c[nH]c4c(P(C)(C)=O)c(C#N)ccc34)n2)CN1 (centres undefined) + CCn1c(-c2cc(N3CCN(C)CC3)cnc2C(C)OC)c2c3cc(ccc31)-c1csc(n1)CC(NC(=O)C1CC1C)C(=O)N1CCCC(N1)C(=O)OCC(C)(C)C2 3.88%

###

# System: LG0567-F671-PDC complex spheroids viability
# testSummary: Anticancer human tumor LG0567-F671-PDC cell line growth inhibition [RAS];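 also: spheroids exposed to compound for seven days before readout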
# conditionDetails: second compound 1 µM; first compound 0.316 µM; hits give low values
Attribute: viability, T/C

Example results:
[
  {
    "compound": "Nc1ccn(C2OC(CO)C(O)C2(F)F)c(=O)n1 (stereo not drawn) + C=CC(=O)N1CCN(c2nc(OCC3CCCN3C)nc3c(F)c(-c4nc(N)cc(C)c4C(F)(F)F)c(Cl)cc23)C(C)C1",
    "targetUnderTest": "LG0567-F671-PDC complex spheroids viability",
    "viability, T/C": "14.2%"
  },
  {
    "compound": "C[C@@H](NC(=O)c1ncnc(N)c1Cl)c1ncc(C(=O)Nc2cc(C(F)(F)F)c(Cl)cn2)s1 + C=CC(=O)N1CCN(c2nc(OCC3CCCN3C)nc3c(F)c(-c4nc(N)cc(C)c4C(F)(F)F)c(Cl)cc23)C(C)C1",
    "targetUnderTest": "LG0567-F671-PDC complex spheroids viability",
    "viability, T/C": "20.4%"
  }
]

// returns reported viability, T/C for input CC(C)NCC(C(=O)N1CCN(c2ncnc3c2C(C)CC3O)CC1)c1ccc(Cl)cc1 (stereo not drawn) + C=CC(=O)N1CCN(c2nc(OCC3CCCN3C)nc3c(F)c(-c4nc(N)cc(C)c4C(F)(F)F)c(Cl)cc23)C(C)C1 12.7%

###

# Test system: LG0567-F671-PDC complex spheroids viability
# testSummary: Anticancer human tumor LG0567-F671-PDC cell line growth inhibition [RAS]; active = viability on the fitted dose curve at most 10% of control; inactive = the rest;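 also: spheroids exposed to compound for seven days before readout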
# conditionDetails: second compound 1 µM; first compound 1 µM
Bench note: report the call from y for active, n for inactive

[
  {
    "molecule": "CCC(CC)c1cc(NC2CCC(N)C2)n2nccc2n1 (stereo not drawn) + C=CC(=O)N1CCN(c2nc(OCC3CCCN3C)nc3c(F)c(-c4nc(N)cc(C)c4C(F)(F)F)c(Cl)cc23)C(C)C1",
    "category": "y"
  },
  {
    "molecule": "Cc1nc(N2CCC3(CC2)COC(C)C3N)c(CO)nc1Sc1ccnc(N)c1Cl (stereo not drawn) + C=CC(=O)N1CCN(c2nc(OCC3CCCN3C)nc3c(F)c(-c4nc(N)cc(C)c4C(F)(F)F)c(Cl)cc23)C(C)C1",
    "category": "y"
  }
]

Write down the call the test reported for this molecule. Item: C[C@@H](NC(=O)c1ncnc(N)c1Cl)c1ncc(C(=O)Nc2cc(C(F)(F)F)c(Cl)cn2)s1 + C=CC(=O)N1CCN(c2nc(OCC3CCCN3C)nc3c(F)c(-c4nc(N)cc(C)c4C(F)(F)F)c(Cl)cc23)C(C)C1 n
